biological target: CGRP1 receptor (CRLR/RAMP1 complex) of human neuroblastoma SK-N-MC cells (human, UniProt Q16602 23-461; O60894 27-148); assay: cell-based or functional assay
Sequence (Q16602 23-461, chain 1 of 2): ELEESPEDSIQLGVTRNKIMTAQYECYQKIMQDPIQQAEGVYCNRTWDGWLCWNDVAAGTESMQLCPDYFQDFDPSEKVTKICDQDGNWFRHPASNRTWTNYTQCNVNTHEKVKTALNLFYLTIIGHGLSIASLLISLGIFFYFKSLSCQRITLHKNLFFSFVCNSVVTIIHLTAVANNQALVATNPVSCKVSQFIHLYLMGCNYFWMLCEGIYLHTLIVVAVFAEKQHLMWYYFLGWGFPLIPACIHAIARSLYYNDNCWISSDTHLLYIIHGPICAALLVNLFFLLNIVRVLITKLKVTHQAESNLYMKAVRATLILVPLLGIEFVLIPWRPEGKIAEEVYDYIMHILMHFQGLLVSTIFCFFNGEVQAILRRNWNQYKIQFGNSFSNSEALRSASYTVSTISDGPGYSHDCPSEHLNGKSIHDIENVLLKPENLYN
Sequence (O60894 27-148, chain 2 of 2): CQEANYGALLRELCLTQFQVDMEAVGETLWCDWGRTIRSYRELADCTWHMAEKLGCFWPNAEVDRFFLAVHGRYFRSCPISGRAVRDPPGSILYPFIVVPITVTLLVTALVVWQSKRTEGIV
Square brackets hold non-standard residues; d marks the D form. Igl = N[C@H](C(=O)O)C1Cc2ccccc2C1; hArg = N=C(N)NCCCC[C@H](N)C(=O)O; Cit = NC(=O)NCCC[C@H](N)C(=O)O
READOUT TYPE: PEG-peptide IC50 (nM)
API: value field is a number in nM; no unit string.

**Query** Query (binder): WVTHXLAGLLSXSGGVVXKNFVPTDVGPXAF (Ac-WVTH[Cit]LAGLLS[Cit]SGGVV[hArg]KNFVPTDVGP[Bip]AF-NH2; PEG-conjugated (Table 2C: in most cases at Lys^25)) [PEG-peptide of SEQ ID NO 929] ; field requested: PEG-peptide IC50
**Result** 5.58

**Query** Again, but for Ac-WVTH[Cit]LAGLLS[Cit]SGGVV[hArg]KNFVPTDVGP[Igl]AF-NH2 (also: PEG-conjugated, in most cases at Lys25) [PEG-peptide of SEQ ID NO 930]
**Result** 126

Attribution: patent US20080020978A1
